- TESTED TARGET: Prostaglandin D2 receptor 2 (Homo sapiens)
- Sequence (Q9Y5Y4 whole entry): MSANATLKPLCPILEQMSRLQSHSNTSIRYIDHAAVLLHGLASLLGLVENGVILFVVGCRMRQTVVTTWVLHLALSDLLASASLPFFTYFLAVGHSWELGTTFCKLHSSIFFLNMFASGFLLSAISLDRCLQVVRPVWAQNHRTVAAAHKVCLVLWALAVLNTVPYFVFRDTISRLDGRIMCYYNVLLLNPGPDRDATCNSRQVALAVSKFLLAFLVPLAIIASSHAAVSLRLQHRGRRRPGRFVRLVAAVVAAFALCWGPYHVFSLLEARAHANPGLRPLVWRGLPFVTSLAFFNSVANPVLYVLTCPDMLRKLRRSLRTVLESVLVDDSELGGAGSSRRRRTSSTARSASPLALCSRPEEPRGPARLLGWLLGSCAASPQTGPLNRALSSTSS
- ASSAY TEXT: Displacement of[3H]PGD2 from human CRTH2 receptor expressed in […] cells
- Format: cell-based
ASSAY ENDPOINT: IC50 (nM)
# value in nM; strip the unit string

Field: example entries. Status: answers known.
* O=C(O)Cc1sc(C(c2ccccc2)c2ccc(Cl)cc2)nc1-c1ccc(F)cc1 (stereo not drawn) | 14
* O=C(O)Cc1sc(C(c2ccc(F)cc2)c2ccc(F)cc2)nc1-c1ccnc(N2CCC2)c1 | 660

# input for lookup
Query: IC50; subject: "CS(=O)(=O)Nc1cccc(-c2nc(C(c3ccc(F)cc3)c3ccc(F)cc3)sc2CC(=O)O)c1"
40
